Target: Caspase-6 (Homo sapiens)
Sequence (P55212 whole entry): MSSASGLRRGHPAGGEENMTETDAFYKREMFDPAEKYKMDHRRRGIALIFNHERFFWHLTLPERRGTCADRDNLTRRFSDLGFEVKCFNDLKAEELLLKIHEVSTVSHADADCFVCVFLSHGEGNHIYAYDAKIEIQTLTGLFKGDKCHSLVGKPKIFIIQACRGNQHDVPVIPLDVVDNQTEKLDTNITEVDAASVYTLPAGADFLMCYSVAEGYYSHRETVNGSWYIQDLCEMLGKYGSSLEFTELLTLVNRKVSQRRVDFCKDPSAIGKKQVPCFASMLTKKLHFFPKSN
READOUT_TYPE: IC50 (µM)

Example compounds with recorded IC50:
SMILES_RECORD: COc1ccc(CN2C(=O)C(=O)c3cc(S(=O)(=O)N4CC[C@H]4COc4cccnc4)ccc32)cc1
TEST_RESULT: 9.2
//
SMILES_RECORD: O=C1C(=O)N(Cc2cn(CCF)nn2)c2ccc(S(=O)(=O)N3CC[C@H]3COc3ccc(F)cc3F)cc21
TEST_RESULT: 4.7
//
SMILES_RECORD: N#CC(C#N)=C1C(=O)N(Cc2ccc(OCCF)cc2)c2ccc(S(=O)(=O)N3CCC[C@H]3COc3ccccc3)cc21
TEST_RESULT: 0.927
//
SMILES_RECORD: O=C1C(=O)N(Cc2cn(CCF)nn2)c2ccc(S(=O)(=O)N3CCC[C@H]3COc3ccc(F)cc3F)cc21
TEST_RESULT: 4.43
//
SMILES_RECORD: O=C1C(=O)N(Cc2cn(CCF)nn2)c2ccc(S(=O)(=O)N3CCC[C@H]3COc3cccnc3)cc21
TEST_RESULT: 13.4

P = N#CC(C#N)=C1C(=O)N(Cc2ccc(OCCOCCF)cc2)c2ccc(S(=O)(=O)N3CC[C@H]3COc3ccccc3)cc21
Q = O=C1C(=O)N(Cc2ccc(OCCOCCOCCF)cc2)c2ccc(S(=O)(=O)N3CCC[C@H]3COc3ccccc3)cc21
Hi, I'm comparing P with Q and wondering which one has the bigger number for IC50. Any idea? Kindly give the label for the entry you pick. Q
(Q: 7.67 µM, P: 1.01 µM)

---

As a worked illustration, we turn to IC50 data collected for UniProt:Q14790.
Sequence (Q14790 217-374 limits assumed): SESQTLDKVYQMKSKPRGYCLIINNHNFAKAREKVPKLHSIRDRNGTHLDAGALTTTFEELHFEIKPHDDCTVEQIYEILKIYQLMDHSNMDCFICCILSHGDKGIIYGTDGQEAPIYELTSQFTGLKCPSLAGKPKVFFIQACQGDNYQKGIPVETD
Sequence (Q14790 385-479 limits assumed): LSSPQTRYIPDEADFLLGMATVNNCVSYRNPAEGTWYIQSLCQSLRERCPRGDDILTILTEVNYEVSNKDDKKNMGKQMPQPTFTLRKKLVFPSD

Example compounds with recorded IC50:
SMILES_RECORD: O=C1C(=O)N(Cc2ccc(OCCF)cc2)c2ccc(S(=O)(=O)N3CC[C@H]3COc3cccnc3)cc21
ASSAYED_TARGET: UniProt:Q14790
IC50: > 50 µM
--
SMILES_RECORD: COc1ccc(CN2C(=O)C(=O)c3cc(S(=O)(=O)N4CC[C@H]4COc4cccnc4)ccc32)cc1
ASSAYED_TARGET: UniProt:Q14790
IC50: > 50 µM
--
SMILES_RECORD: COc1ccc(CN2C(=O)C(=C(C#N)C#N)c3cc(S(=O)(=O)N4CC[C@H]4COc4cccnc4)ccc32)cc1
ASSAYED_TARGET: UniProt:Q14790
IC50: > 50 µM
--
SMILES_RECORD: O=C1C(=O)N(Cc2ccc(OCCOCCF)cc2)c2ccc(S(=O)(=O)N3CC[C@H]3COc3ccccc3)cc21
ASSAYED_TARGET: UniProt:Q14790
IC50: > 50 µM
--
SMILES_RECORD: O=C1C(=O)N(Cc2cn(CCF)nn2)c2ccc(S(=O)(=O)N3CC[C@H]3COc3cccnc3)cc21
ASSAYED_TARGET: UniProt:Q14790
IC50: > 50 µM

Continue with the compound presented below.
Which value of IC50 has been reported for `O=C1C(=O)N(Cc2cn(CCF)nn2)c2ccc(S(=O)(=O)N3CCC[C@H]3COc3cccnc3)cc21` in the records? > 50 µM

The origin of these recorded values is ChEMBL document CHEMBL1759857.
